Below, each entry is listed alongside its reported pIC50.
# study system: Autotaxin (Homo sapiens, UniProt Q13822)
# Construct: from tissue; host or cells: pooled human plasma
# protocol text: LPA formation in pooled human plasma (ex vivo autotaxin inhibition)
# Format: biochemical
# condition label: 2 hours incubation, LPA 20:4 by LC/MS/MS, read-out: LPA formation (20:4) (IC50)
pIC50: −log10 of the molar value.
measurement name: pIC50

1) CCc1nn2c(C)cc(N3CCN(CC(=O)N4CC[C@H](O)C4)CC3)cc2c1N(C)c1nc(-c2ccc(F)cc2)c(C#N)s1 [Example 26] ... 6.30 to 7.00
2) CCc1nn2c(C)cc(N3CC4(CN(C(=O)C5(O)CCOCC5)C4)C3)cc2c1N(C)c1nc(-c2ccc(F)cc2)c(C#N)s1 [Example 56] ... ≥ 7.00
3) CCc1nn2c(C)cc(N3CC4C(C3)C4NC(=O)[C@H]3CCOC3)cc2c1N(C)c1nc(-c2ccc(F)cc2)c(C#N)s1 (stereo partly drawn) [Example 64] ... 6.30 to 7.00
